Listing of entries alongside the reported combination Emax.
- Test system: SW1783 (Low Grade Glioma)
- runDescription: combination Emax (second highest fraction inhibited in the dose matrix, 72 h); higher = more inhibition; extreme values may be limits of the assay
recordedEndpoint: combination Emax

>  <compound>
C=CCn1c(=O)c2cnc(Nc3ccc(N4CCN(C)CC4)cc3)nc2n1-c1cccc(C(C)(C)O)n1 [AZD1775] + Nc1ccn([C@@H]2O[C@H](CO)[C@@H](O)C2(F)F)c(=O)n1 [Gemcitabine] (first compound max 1 µM, partner max 0.3 µM)

>  <systemUnderTest>
SW1783 (Low Grade Glioma)

>  <recordedEndpoint>
combination Emax

>  <value>
0.684

$$$$
>  <compound>
C[C@@H](Oc1cc(-c2cnn(C3CCNCC3)c2)cnc1N)c1c(Cl)ccc(F)c1Cl [Crizotinib] + Cn1cnc2c(F)c(Nc3ccc(Br)cc3Cl)c(C(=O)NOCCO)cc21 [Selumetinib] (first compound max 10 µM, 7x7, partner max 10 µM)

>  <systemUnderTest>
SW1783 (Low Grade Glioma)

>  <recordedEndpoint>
combination Emax

>  <value>
0.194

$$$$
>  <compound>
Cc1cc2ncnn2cc1Nc1ncc2c(n1)n(C1CCOCC1)c(=O)n2C [AZD7648] + O=C(c1cc(Cc2n[nH]c(=O)c3ccccc23)ccc1F)N1CCN(C(=O)C2CC2)CC1 [Olaparib] (first compound max 10 µM, 7x7, partner max 10 µM)

>  <systemUnderTest>
SW1783 (Low Grade Glioma)

>  <recordedEndpoint>
combination Emax

>  <value>
0.14

$$$$
